All values here come from paper PMC3994062.

- tested-target: UniProt:C1H8F5
- Sequence (C1H8F5 entry or part of it): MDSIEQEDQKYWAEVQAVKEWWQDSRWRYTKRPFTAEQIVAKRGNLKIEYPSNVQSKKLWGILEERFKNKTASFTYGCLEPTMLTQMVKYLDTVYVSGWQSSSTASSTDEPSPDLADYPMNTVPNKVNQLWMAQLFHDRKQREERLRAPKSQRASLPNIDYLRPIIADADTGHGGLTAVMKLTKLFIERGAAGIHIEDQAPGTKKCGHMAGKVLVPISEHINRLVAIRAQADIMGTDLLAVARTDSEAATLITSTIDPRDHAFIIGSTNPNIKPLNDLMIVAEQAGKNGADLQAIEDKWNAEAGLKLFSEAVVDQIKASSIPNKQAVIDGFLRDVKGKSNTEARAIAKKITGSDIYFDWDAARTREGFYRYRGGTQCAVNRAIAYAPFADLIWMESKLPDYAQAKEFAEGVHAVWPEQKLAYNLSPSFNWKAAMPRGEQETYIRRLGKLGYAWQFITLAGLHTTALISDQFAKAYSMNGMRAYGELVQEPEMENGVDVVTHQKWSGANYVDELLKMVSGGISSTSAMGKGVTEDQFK
- experimental-details: Enzymatic activity of recombinant isocitrate lyase (PbICLr)
- Assay type: biochemical
- condition-label: recombinant enzyme; N.I. = No inhibition found; control 2.55±0.02
observed-property: Specific activity PbICLr (U/mg)
Return type: number; implicit unit U/mg.

What does the record list as Specific activity PbICLr for CCCCC/C=C\[C@H]1CC=CC(=O)O1 [Argentilactone] ?
0.86

Request the reported Specific activity PbICLr associated with CCCCCCCC1CC=CC(=O)O1 (stereo in doubt) [Reduced argentilactone]
0.93

Would you kindly share the measured Specific activity PbICLr for O=C(O)CC[N+](=O)[O-] [3-Nitropropionate, reference compound] ?
0.81
